Each recorded value in this set is attributed to paper PMC6321301.

target: porcine pancreatic lipase (Sus scrofa)
Construct: purchased Sigma (Sigma-Aldrich, Shanghai, China); host or cells: porcine pancreas (natural source)
Sequence (P00591 whole entry): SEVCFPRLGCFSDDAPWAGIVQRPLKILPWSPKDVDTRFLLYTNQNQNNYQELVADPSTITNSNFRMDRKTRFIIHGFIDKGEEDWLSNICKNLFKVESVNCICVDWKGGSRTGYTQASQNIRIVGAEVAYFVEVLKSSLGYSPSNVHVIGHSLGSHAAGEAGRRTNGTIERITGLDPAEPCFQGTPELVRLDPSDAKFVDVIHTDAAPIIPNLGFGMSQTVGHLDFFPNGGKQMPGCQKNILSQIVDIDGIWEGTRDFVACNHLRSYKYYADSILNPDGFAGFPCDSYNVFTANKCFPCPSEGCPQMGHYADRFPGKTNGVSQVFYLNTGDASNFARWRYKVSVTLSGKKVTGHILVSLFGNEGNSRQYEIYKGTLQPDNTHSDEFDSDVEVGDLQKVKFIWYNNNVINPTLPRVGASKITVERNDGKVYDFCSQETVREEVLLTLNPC
testMethodNotes: Pancreatic lipase inhibition
Format: biochemical
measurementContext: mean ± SD, n = 3
measurementName: IC50 (µM)
Numbers only, in µM.

Record C[C@@H]1O[C@@H](OC[C@H]2O[C@@H](Oc3c(-c4ccc(O)c(O)c4)oc4cc(O)cc(O)c4c3=O)[C@H](O)[C@@H](O)[C@@H]2O)[C@H](O)[C@H](O)[C@H]1O [Rutin] has porcine pancreatic lipase (Sus scrofa) IC50 equal to 289

* * *

target: α-glucosidase from Saccharomyces cerevisiae (Saccharomyces cerevisiae, UniProt P53341)
Sequence (P53341 whole entry): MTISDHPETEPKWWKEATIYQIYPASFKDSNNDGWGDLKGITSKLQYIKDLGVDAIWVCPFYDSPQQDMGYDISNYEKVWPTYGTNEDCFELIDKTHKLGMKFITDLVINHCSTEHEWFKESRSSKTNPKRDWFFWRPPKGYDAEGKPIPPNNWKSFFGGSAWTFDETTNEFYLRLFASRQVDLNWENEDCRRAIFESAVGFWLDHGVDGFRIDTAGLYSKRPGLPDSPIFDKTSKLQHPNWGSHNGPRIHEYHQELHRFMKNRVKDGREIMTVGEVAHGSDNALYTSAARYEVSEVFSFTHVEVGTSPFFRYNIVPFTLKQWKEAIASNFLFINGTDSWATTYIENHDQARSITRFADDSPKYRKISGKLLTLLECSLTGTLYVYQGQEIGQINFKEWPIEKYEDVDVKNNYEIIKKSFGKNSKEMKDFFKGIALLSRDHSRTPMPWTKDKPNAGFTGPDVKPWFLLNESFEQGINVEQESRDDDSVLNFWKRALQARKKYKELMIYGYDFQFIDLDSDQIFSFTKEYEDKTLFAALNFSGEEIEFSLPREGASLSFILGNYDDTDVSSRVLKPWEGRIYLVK
measurementName: pIC50
Numbers only, as −log10 of the molar value.

C[C@@H]1O[C@@H](OC[C@H]2O[C@@H](Oc3c(-c4ccc(O)c(O)c4)oc4cc(O)cc(O)c4c3=O)[C@H](O)[C@@H](O)[C@@H]2O)[C@H](O)[C@H](O)[C@H]1O [Rutin] yielded pIC50 of 3.68
